Compiled notes: published IC50 values involving Tyrosine-protein kinase JAK2 (Homo sapiens, UniProt O60674).

Sample answers from the record:
1. COc1cc(Nc2ccccc2C(=O)NCCc2c[nH]c3ccccc23)cc(OC)c1OC > 10000 nM
2. CS(=O)(=O)N1CCC(Nc2ncc(Cl)c(-c3cnn(C4CCOCC4)c3)n2)CC1 > 10000 nM
3. CS(=O)(=O)Nc1ccc(-c2ccnc(Nc3ccc(N4CCN(CC(=O)Nc5ccc(/C=C/C(=O)NO)cc5)CC4)cc3)n2)cc1 0.72 nM

[Q] GET /values?readout=IC50&system=Tyrosine-protein kinase JAK2 (Homo sapiens, UniProt O60674)&item= C[C@@H](Oc1ccc2[nH]nc(-c3ccc(N4CC5(C4)CN(S(C)(=O)=O)C5)nc3)c2c1)c1c(Cl)cncc1Cl
[A] 36 nM
